SYSTEM_TESTED: human Claudin 18.2 (hCLDN18.2) (human, UniProt P56856-2 1-261)
EXPERIMENT_DESCRIPTION: cell-based or functional assay
MEASURED_PARAMETER: CDC EC50 (mg/L)
Respond numerically; units are mg/L and should not be typed.

Give the measured CDC EC50 of hu299B2-S32A-3 (antibody, V domains shown, also called humanized antibody hu299B2-S32A) VH: QVQLVQSGAEVKKPGASVKVSCKASGYIFTNYWIHWVRQAPGQGLEWMGRIYPGTGNTYYNEKFTGRVTMTRDTSTSTVYMELSSLRSEDTAVYYCAREGYGKGNSMDYWGQGTTVTVSS VL: DIVMTQSPDSLAVSLGERVTMNCKSSQSLLNAGNQKNYLTWYQQKPGQPPKLLFYWASTRESGVPDRFSGSGSGTDFTLTISSVQAEDVAVYHCQNAYYYPYTFGGGTKLEIK . 0.092

Give the measured CDC EC50 of hu299B2-S32A-1 (antibody, V domains shown, also called humanized antibody hu299B2-S32A) VH: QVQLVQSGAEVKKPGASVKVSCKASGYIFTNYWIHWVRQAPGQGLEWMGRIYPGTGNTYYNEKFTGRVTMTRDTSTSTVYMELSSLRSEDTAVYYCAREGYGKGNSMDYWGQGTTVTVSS VL: DIVMTQSPDSLAVSLGERATINCKSSQSLLNAGNQKNYLTWYQQKPGQPPKLLIYWASTRESGVPDRFSGSGSGTDFTLTISSLQAEDVAVYYCQNAYYYPYTFGGGTKLEIK . 0.125

Give the measured CDC EC50 of hu299B2-S32A-2 (antibody, V domains shown, also called humanized antibody hu299B2-S32A) VH: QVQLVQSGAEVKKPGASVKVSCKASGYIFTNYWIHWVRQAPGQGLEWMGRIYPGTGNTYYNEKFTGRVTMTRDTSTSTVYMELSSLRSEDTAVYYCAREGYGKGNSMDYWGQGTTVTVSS VL: DIVMTQSPDSLAVSLGERATMNCKSSQSLLNAGNQKNYLTWYQQKPGQPPKLLFYWASTRESGVPDRFSGSGSGTDFTLTISSLQAEDVAVYHCQNAYYYPYTFGGGTKLEIK . 0.129

Now consider the entry below.
Give the measured CDC EC50 of hu299B2-S32A-4 (antibody, V domains shown, also called humanized antibody hu299B2-S32A) VH: QVQLVQSGAEVKKPGASVKVSCKTSGYIFTNYWIHWVRQAPGQGLEWMGRIYPGTGNTYYNEKFTGRVTLTADTSTSTVYMELSSLRSEDTAVYYCSREGYGKGNSMDYWGQGTTVTVSS VL: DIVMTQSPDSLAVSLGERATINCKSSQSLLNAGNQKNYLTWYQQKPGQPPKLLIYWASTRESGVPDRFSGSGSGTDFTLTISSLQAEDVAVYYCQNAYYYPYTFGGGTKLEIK . 0.123
